Quick list: pKi per entry.
biological target: Muscarinic acetylcholine receptor M1 (Homo sapiens); assay: Displacement of [3H]-NMS from human muscarinic M1 receptor expressed in CHO-K9 cells after 3 hrs by microbeta2 scintillation counting method; type: cell-based
Sequence (P11229 whole entry): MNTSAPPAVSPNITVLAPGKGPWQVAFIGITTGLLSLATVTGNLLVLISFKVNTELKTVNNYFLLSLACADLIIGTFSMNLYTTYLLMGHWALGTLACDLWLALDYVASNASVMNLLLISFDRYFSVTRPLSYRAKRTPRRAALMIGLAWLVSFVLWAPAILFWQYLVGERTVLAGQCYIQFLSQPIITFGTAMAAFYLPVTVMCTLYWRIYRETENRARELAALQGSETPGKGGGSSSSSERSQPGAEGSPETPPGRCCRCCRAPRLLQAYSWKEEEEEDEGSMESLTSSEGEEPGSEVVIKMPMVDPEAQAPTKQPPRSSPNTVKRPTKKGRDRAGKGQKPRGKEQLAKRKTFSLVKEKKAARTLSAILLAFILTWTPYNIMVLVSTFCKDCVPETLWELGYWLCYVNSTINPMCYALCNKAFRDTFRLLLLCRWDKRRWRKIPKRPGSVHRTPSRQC
As a rule, pKi stands for the negative log10 of the concentration, concentration in M.

CC(=O)N[C@@H](CCCCN)C(=O)N[C@@H](Cc1ccc(O)cc1)C(=O)NCCCCC1CCN(CC(=O)N2c3ccccc3NC(=O)c3ccccc32)CC1    7.52
CC(=O)N[C@@H](CCCNC(=N)N)C(=O)N[C@@H](CCCCN)C(=O)NCCCCC1CCN(CC(=O)N2c3ccccc3NC(=O)c3ccccc32)CC1    7.02
CC(=O)N[C@@H](Cc1c[nH]c2ccccc12)C(=O)N[C@@H](C)C(=O)N[C@@H](Cc1ccc(O)cc1)C(=O)NCCCCC1CCN(CC(=O)N2c3ccccc3NC(=O)c3ccccc32)CC1    7.03

Reported pKi of CC(=O)N[C@@H](CCCCN)C(=O)N[C@@H](CCCNC(=N)N)C(=O)NCCN1CCN(CCCCC2CCN(CC(=O)N3c4ccccc4NC(=O)c4ccccc43)CC2)CC1 : 8.91

Reported pKi of CC(=O)N[C@@H](CCCNC(=N)N)C(=O)NCCCCC1CCN(CC(=O)N2c3ccccc3NC(=O)c3ccccc32)CC1 : 7.01

Reported pKi of CC(=O)N[C@@H](CCC(N)=O)C(=O)N[C@@H](CC(C)C)C(=O)NCCN1CCN(CCCCC2CCN(CC(=O)N3c4ccccc4NC(=O)c4ccccc43)CC2)CC1 : 8.62

Attribution: ChEMBL document CHEMBL4396879
